Target: T1, TRBP dsRBD12 Cy3B-CF660R (doubly labeled) (human, UniProt Q15633 16-158+=T+159-227, C73A;M100C;C196V;internal_change)
T1 sequence: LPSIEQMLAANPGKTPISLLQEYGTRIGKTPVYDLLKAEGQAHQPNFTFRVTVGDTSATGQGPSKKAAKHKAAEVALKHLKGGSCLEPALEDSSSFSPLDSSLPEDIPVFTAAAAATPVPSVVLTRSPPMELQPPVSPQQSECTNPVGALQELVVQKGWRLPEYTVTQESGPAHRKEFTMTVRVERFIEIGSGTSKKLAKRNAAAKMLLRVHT
Assay: single-molecule FRET titration; 125 mM KCl, 20 mM Tris-HCl pH 7.4, 295 K; smFRET: 20 mM Tris-HCl pH 7.4, 125 mM KCl (affinity) or 25 mM KCl (orientation), 15 nM BSA, 0.001% Tween-20, 295 K; NMR buffer not in material
Conditions: protein: recombinant; tags: Cy3B and CF660R at C100 and C158; pET47b(+)-based vector; 19 bp, 3' overhang 2 nt (UU) on both strands
pKd: −log10 of the molar value.

[
  {
    "binder": "EL86 siRNA (dsRNA) RNA 1: UUAAUUAUCUAUUCCGUACUU RNA 2: GUACGGAAUAGAUAAUUAAUU",
    "pKd": 9.68
  }
]
